tested on: heat shock protein 70 (HSP70); assay: Western blot analysis of HSP70 expression in U251 cells; format: cell-based, human; details: effect abrogated by N-acetyl-cysteine
attribute-measured: Stress response (heat shock effect and oxidative stress effect) following treatment

C=C1C(=O)O[C@@H]2C[C@]1(C)OC[C@H]2[C@H]1CC[C@H]2[C@@H]3C[C@H]4O[C@]45CC=CC(=O)[C@]5(C)[C@H]3CC[C@]12C [Compound 5, withametelin F]    observed
C=C1C(=O)O[C@@H]2C[C@]1(C)OC[C@H]2[C@H]1CC[C@H]2[C@@H]3CC=C4CC=CC(=O)[C@]4(C)[C@H]3CC[C@]12C [Compound 3, withametelin]    observed
C=C1C(=O)O[C@@H]2C[C@]1(C)OC[C@H]2[C@H]1CC[C@H]2[C@@H]3CC=C4CC=CC(=O)[C@]4(C)[C@H]3C[C@@H](O)[C@]12C [Compound 2]    observed
